- Experimental Protocol: BSK_3C_TissueFactor: BioMAP Diversity Plus: 3C Assay for Tissue Factor Biomarker Activity (AID 2282997)
- Condition Parameters: BioMAP 3C HUVEC, tissue factor biomarker readout; actives raise or lower the signal
The source made the active and inactive calls. The calls were made as follows: active = hit-call score of the fitted dose curve at least 0.9, where 1 is the maximum; inactive = score below 0.9.
The reply should name one outcome from active, inactive

# count of solved cases: 10
Compound	Qualitative Label
OCC(F)(F)C(F)(F)C(F)(F)C(F)(F)C(F)(F)C(F)(F)F	inactive
CCCCCCC(C)OC(=O)CCCCC(=O)OC(C)CCCCCC (configuration not stated)	inactive
FC(F)(F)C(F)(F)C(F)(F)C(F)(F)C(F)(F)C(F)(F)CCS	inactive
O=C(O)C(F)(F)C(F)(F)C(F)F	inactive
FC(F)(F)C(F)(F)C(F)(F)N(C(F)(F)C(F)(F)C(F)(F)F)C(F)(F)C(F)(F)C(F)(F)F	inactive
CC(CCl)OP(=O)(OC(C)CCl)OC(C)CCl (configuration not stated)	inactive
CC(C)(C)C(=O)CC(=O)C(F)(F)C(F)(F)C(F)(F)F	inactive
O=C(O)C(F)(F)C(F)(F)F	inactive
O=S(=O)(OCCOC(F)(F)F)C(F)(F)F	inactive
CCc1ccc(C(c2ccc(CC)cc2)C(Cl)Cl)cc1	inactive

Problem: Assay outcome for CS(C)(=O)=O : what was it?
Result: inactive

Problem: Assay outcome for Cc1ccc(S(=O)(=O)OCC(F)(F)C(F)(F)C(F)(F)C(F)(F)C(F)(F)C(F)F)cc1 : what was it?
Result: inactive

Problem: Assay outcome for FC(F)(F)C(F)(F)C(F)(F)C(F)(F)C(F)(F)C(F)(F)C(F)(F)I : what was it?
Result: inactive

Problem: Assay outcome for CCCCC(CC)COP(=O)(O)OCC(CC)CCCC (configuration not stated) : what was it?
Result: inactive

Problem: Assay outcome for CCN(CC)c1ccc2c(C)cc(=O)oc2c1 : what was it?
Result: active

Problem: Assay outcome for C=C(C)C(=O)OCC(F)(F)C(F)(F)C(F)(F)F : what was it?
Result: inactive

Problem: Assay outcome for OCC(F)(F)C(F)(F)C(F)(F)F : what was it?
Result: inactive

Value source: PubChem BioAssay (EPA / NIEHS)
